This collection of values is drawn from patent US7250441B2.

Molecular target: HCV RdRp NS5B d21BK (NS5B from the BK strain, genotype 1b) (Hepatitis C virus genotype 1b)
Construct: NS5B from the BK strain (genotype 1b) is expressed in E coli as a protein in which the 21 C-terminal amino acids are replaced; made in house; host or cells: E. coli
Sequence (P26663 2420-2989): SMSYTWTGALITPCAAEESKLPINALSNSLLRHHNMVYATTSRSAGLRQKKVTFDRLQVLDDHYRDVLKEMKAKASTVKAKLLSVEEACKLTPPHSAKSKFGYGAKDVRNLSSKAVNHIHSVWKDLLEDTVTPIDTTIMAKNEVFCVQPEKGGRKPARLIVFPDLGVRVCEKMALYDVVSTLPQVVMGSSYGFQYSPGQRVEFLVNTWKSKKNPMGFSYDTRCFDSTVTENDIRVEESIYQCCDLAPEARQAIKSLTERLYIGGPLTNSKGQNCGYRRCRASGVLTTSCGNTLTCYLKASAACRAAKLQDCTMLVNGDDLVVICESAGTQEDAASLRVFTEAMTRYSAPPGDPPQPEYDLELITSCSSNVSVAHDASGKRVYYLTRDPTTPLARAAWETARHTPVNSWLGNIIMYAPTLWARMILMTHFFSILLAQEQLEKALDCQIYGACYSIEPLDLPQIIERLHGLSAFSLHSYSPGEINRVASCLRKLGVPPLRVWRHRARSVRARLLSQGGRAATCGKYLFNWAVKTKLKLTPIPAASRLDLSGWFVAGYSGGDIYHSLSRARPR
Assay: Hepatitis C polymerase inhibition assay, radioactive nucleotide incorporation with filter capture
Assay type: biochemical
Description: The ability of the compounds of formula (I) to inhibit Hepatitis C Polymerase was established by the following experimental procedure. NS5B from the BK strain (genotype 1b) is expressed in E coli as a protein in which the 21 C-terminal amino acids are replaced with a short linker and a hexahistidine tag ([…]). […] The radioactive product is captured on a filter and quantitated after removal of the unincorporated nucleotides. […] (10) The plate is counted using a Packard Topcount or micro-beta counter. […]
value-kind: IC50 (µM)
Return type: number; implicit unit µM.

CCCC1(C(=O)O)CCCc2c1[nH]c1c(C)ccc(C#N)c21 (stereo not drawn) [Example 28]
15
C=CCC1(C(=O)O)CCc2c1[nH]c1c(C)ccc(C#N)c21 (stereo not drawn) [Example 18]
11

// moving on: another record for IC50
Value of IC50 reported for the molecule CCCC1(CC(=O)O)CCCc2c1[nH]c1c(C#N)ccc(C#N)c21 (stereo not drawn) [Example 35] is 3.4
